Entry source: PubChem BioAssay

Please provide measured nuclei count for the entries that follow.
Experiment: reduction of polyQ htt aggregates in cells – imaging, exon1htt(103Q)mCFP cells, high-content imaging, primary screen (AID 483);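 also: compound exposure lasted 3 days before fixation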;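 as to nuclei count: percent of the per-plate median nuclei count of sample wells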
Conditions: exon1htt(103Q)mCFP cell line, aggregate imaging, at 2 µM; measured here: cell count, toxicity
Numbers only here, please. The scale is %.

Query (molecule): CC(C)(C)c1cc(NS(=O)(=O)c2ccc3c(c2)OCCO3)on1 ; field requested: nuclei count
104

Same read-out for COc1ccccc1NC(=O)NC1(C(=O)N2CCC(O)CC2)CCCCC1 ?
79.3

And the next one, O=C(NCCCN1CCCC1=O)c1cccnc1 ?
108

// query: CCOC(=O)C1CCCN(C(=O)c2ccc3c(=O)n(CCOC)c(=S)[nH]c3c2)C1 (stereo unspecified)
81.3

# iterate: Cc1cc(NC(=O)CCCC(=O)Nc2ccc(F)cc2)no1
72.2

Param item: O=C(O)C1CCCN1C(=O)Nc1ccc(F)cc1 (stereo unspecified)
91.3

For COCCN(C(=O)CNC(=O)c1ccco1)C(C(=O)NC1CCCCC1)c1cccc(OC)c1 (stereo unspecified) then?
104

One more molecule: O=S(=O)(Nc1cccc2ncccc12)c1cccs1
67.2

Request: CC(=O)Nc1ccc(Cc2ccncc2)cc1
93.3

Follow-up item: O=C(OCCN=C1NS(=O)(=O)c2ccccc21)C1CC(=O)N(c2ccc(Cl)cc2)C1 (stereo unspecified)
118

Can you check COC(=O)NCC(c1cccnc1)N1CCOCC1 (stereo unspecified) next?
97.8

Follow-up item: Cc1nc2ccc(NC(=O)N3CCC(c4ccccc4)C3)cc2nc1C (stereo unspecified)
106

Same question, O=C(NCc1ccco1)c1cccc(-c2nnc(-c3ccccc3)o2)c1 this time
122

Follow-up item: O=C(c1ccc(Br)o1)N(Cc1ccccc1)c1ccccn1
102

// next record CC1(C)CC(=O)C(C=Nc2ccncc2)=C(O)C1
103

Input CCc1cc2c(=O)c(-c3nc4ccccc4[nH]3)coc2c(CN2CCC(C)CC2)c1O
102

// same read-out, input: Cn1c(=O)[nH]c(=O)c2c1nc(N1CCCCCC1)n2CCCSc1nc2ccccc2o1
102

CN(C)c1cccc(C(=O)OCC(=O)NCc2ccco2)c1 ?
85.3

And the next one, CCCNC(=O)c1cc(-c2ccco2)on1 ?
88.7

Now the molecule CC1CCCCC1NC(=O)COc1ccc(-n2cnnn2)cc1 (stereo unspecified)
81.6

How about COc1ccccc1C(=O)N1CCN(CCc2ccccc2)CC1 ?
100

Also CC(C)(C)OC(=O)NC(CCNC=C1C(=O)OC(C)(C)OC1=O)C(=O)O (stereo unspecified) , if possible.
106

CNC(=O)CSc1nnc(-c2cccc(S(=O)(=O)N3CCOCC3)c2)n1-c1ccc(F)cc1 , same question.
104

Repeat with Cc1ccc(-n2nc(-c3cccs3)cc2C(=O)NCC2CCCO2)c(C)c1 (stereo unspecified)
15.1

Also O=C(CSc1nc2cc(S(=O)(=O)N3CCOCC3)ccc2o1)NC1CCCc2ccccc21 (stereo unspecified) ?
89.9

Can you check CCSCc1nnc(SCC(=O)Nc2cccc(SC)c2)n1C next?
101

###

Experiment: TLR3 IRF3 reporter activation blockers – cell-based, poly I:C stimulus, luciferase, 10K MLSCN set, primary screen (AID 602277)
Settings: HEK293-TLR3 RL24 IRF3 luciferase reporter, at 10 µM, stronger effect = higher value
Please go through the items and note down their inhibition.
Please reply with the bare figure in % and do not write the unit itself.

Fill blank: measured inhibition of the molecule CC(C)(C)n1ncc2c(=O)n(CC(=O)NCc3ccco3)cnc21 is ____.
-92

Next entry: C=CCSc1nc2c(c(=O)[nH]c(=O)n2C)n1CC
22.4

// repeat for O=C(Cc1c(F)cccc1Cl)Nc1ccncc1 and report
11.9

Could you do the same for Cc1cc(-c2ccccc2)nc(SCc2ccc(C(=O)O)o2)n1 , please?
8.59

And then COC(=O)Cn1ncc2c(C)n(Cc3ccccc3)c(C)c2c1=O , what is it?
-89.1

And what about the molecule O=C(Nc1ccc(-c2nc3ncccc3o2)cc1)c1ccc(Br)o1 ?
-98.2

Lookup COc1ccc(S(=O)(=O)NCCSCc2ccco2)cc1Cl
19.9

Repeat with CCCCN1CN(S(=O)(=O)c2cccs2)c2nc3ccccc3nc21
-4.36

Same lookup for CC1(C)CC(=O)C(C=NCc2ccc3c(c2)OCO3)=C(O)C1 , please.
19.8

Subsequent entry: CNC(=O)NCCN1CCCC1=O
11.8

Please do the same for CC(C)(C)OC(=O)N1CCC(C(=O)N2CCCCCC2)CC1 as well.
11.9

What would you report for COC(=O)c1c(N)n(-c2cc(OC)cc(OC)c2)c2nc3ccccc3nc12 ?
-6.82

###

Assay: inhibitors of TNFa-induced NFkB p65 translocation, primary screen, imaging, HUVEC, MLSMR starter and 10KST1 sets (AID 438);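 also: compound added about 3h40 before a 20 min TNFalpha stimulation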
Conditions: HUVEC TNFa-induced p65 nuclear translocation; measured here: nuclei count (cytotoxicity indicator), at 2.08 µM
READOUT_LABEL: cell count
Kindly provide the number alone.

Which cell count value is on record for Cc1ccc(-n2c(C)cc3c2CCCC3=O)cc1 ?
313

# repeat for COCCN(CCOC)C(=O)CCn1c(=O)oc2ccccc21
589

// next record CS(=O)(=O)N(CC(=O)NC1CC1)c1cccc(F)c1
387

And Cc1ccc(-c2cc(C(F)F)n3ncc(C(=O)N4CCN(c5ccccn5)CC4)c3n2)cc1 ?
829

Then what about the compound Fc1cccc(Nc2ncnc3c2cnn3-c2ccccc2)c1 ?
644

Follow-up entry: CCCC(=O)Nc1ccc(NC(=O)c2ccccc2OC)cn1
376

###

Provide the recorded inhibition of aggregation for the entries that follow.
Test: reduction of polyQ htt aggregates in cells – imaging, exon1htt(103Q)mCFP cells, high-content imaging, primary screen (AID 483);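 also: compound exposure lasted 3 days before fixation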
Details: exon1htt(103Q)mCFP cell line, aggregate imaging, at 2 µM; stronger effect = higher value
Entry rule: numbers only, all in %.

Data request, read-out inhibition of aggregation, for O=C1c2ccccc2C(=O)N1Cc1nc2ccccc2c(=O)n1CCN1CCOCC1
-11.3

What would you report for Cc1nc(C)c2c(c1C(F)(F)F)-c1ccccc1C2(F)F ?
-0.1

Would you mind doing CCN(Cc1cc2cc(OC)ccc2[nH]c1=O)C(=O)Cc1ccc(OC)cc1 as well?
-11.9

Try this molecule too: COc1ccc(-n2nc(C(=O)Nc3ccc4c(c3)OCO4)c3c4ccccc4n(C)c3c2=O)cc1
-21.9

Please give the result for CC1=C(C(=O)Nc2ccccc2C)C(c2ccc(C)o2)N2C(=O)CSC2=N1 (configuration not stated) too.
0

Next entry: O=C(CSc1n[nH]c(=O)[nH]c1=O)c1ccccc1
6.7

Repeat for the following molecule: CCc1c(C(=O)Nc2ncn(Cc3cccc(C)c3)n2)csc1C
2

###

Target: Alpha-2C adrenergic receptor (Homo sapiens)
Assay: compounds altering alpha2C-coupled GIRK flux – cell-based, HEK293 alpha2C/GIRK1/2, thallium flux, primary screen (AID 624);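 also: slope of fluorescence ratio to pre-addition baseline per second over 15 to 24 s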
Conditions: thallium flux BTC fluorescence, at 10 µM, actives lie on both sides
Output Criterion met for slope not less than 0.005; output Criterion not met otherwise.

Test whether the molecule O=C(/C=C/N1CCOCC1)c1ccc(-c2ccccc2)cc1 records slope of 0.005 or higher.
Criterion met

Repeat for the following molecule: COCCNC(=O)NC(=O)COC(=O)Cc1ccc2c(c1)OCCO2
Criterion met

What do we get for Cc1cc(C(=O)COC(=O)CCc2nc3ccccc3s2)c(C)n1C ?
Criterion met

Moving on to the next molecule: Cn1c(CN2CCOCC2)nnc1SCC(=O)NCCc1ccccc1
Criterion met

CC1(C)CN=C(N2CCN(c3ncnc4sc5c(c34)CCCC5)CC2)S1 , same question.
Criterion not met

Could you do the same for Cc1sc2ncnc(SCC(=O)N3CCCC3)c2c1C , please?
Criterion met

Entry to check: Cc1c(N=C2SCC(=O)N2c2c(C)n(C)n(-c3ccccc3)c2=O)c(=O)n(-c2ccccc2)n1C
Criterion met

Next record, please: CCCC1CCC(C(=O)Nn2cnc3ccccc3c2=O)CC1 (configuration not stated)
Criterion met

How about this molecule: CCSCc1nnc(SCC(=O)Nc2cccc(SC)c2)n1C
Criterion not met

Can you check Cn1c(C(=O)OC(C(=O)NC2CCCC2)c2cccnc2)cc2sccc21 (configuration not stated) next?
Criterion not met

Entry COc1ccc(CCNC(=O)CC2COc3ccccc3O2)cc1OC (configuration not stated) please
Criterion not met

Try this molecule too: COc1ccc(CNC(=O)CCc2nc(-c3ccccc3F)no2)c(OC)c1
Criterion not met

###

Target: Voltage-gated potassium channel subunit beta-2 (Rattus norvegicus)
Test: enhancers of rat Kvbeta2 NADPH turnover – biochemical, NADPH fluorescence, primary screen (AID 623);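 also: fluorescence intensity change per second fitted from 20 to 320 s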
Details: Recombinant KvBeta, NADPH fluorescence decrease slope, 10 min; at 10 µM; stronger effect = lower value
READOUT_LABEL: NADPH fluorescence slope
API doc: respond with a numeric literal and nothing else, no unit.

Which NADPH fluorescence slope value belongs to Cc1ccc(S(=O)(=O)N2CCN(C(=O)CSc3nnnn3C)C2)cc1 ?
5.7e-06

Quick one: C=CCOC(=O)CC(NC(=O)c1ccccc1)c1ccccc1 (configuration not stated)
-6.2e-05

Please give the result for O=C(Nc1ccc2c(c1)nc1n2CCSC1)c1ccccc1 too.
-1.4e-05

Same question, C[C@H](NC(=O)OC(C)(C)C)C(=O)NCC1CCC(C(=O)O)CC1 (some centres not stated) this time
1.9e-05

And then COCCNC(=O)c1ccc(CS(=O)(=O)c2c(Cl)cccc2Cl)o1 , what is it?
2.4e-05

Same again, this time with CC1=Nn2c(nnc2-c2ccccc2)SC1
-1.6e-05

Another compound to look at: Cc1cc(C)n2c(SCC(=O)Nc3cc(C)on3)nnc2n1
-2.2e-05

Now consider COc1ccc(Cl)c(NC(=O)NCCN2CCN(c3ccccc3)CC2)c1 and answer again.
-1.7e-05

Now consider O=C(NC1CCCCC1)N(Cc1ccc(F)cc1)Cc1nc2ccccc2c(=O)[nH]1 .
3.6e-06

Next compound: COCCNC(=O)CN1CCN(Cc2cccc(Cl)c2)C1=O
-4.6e-05

What would you report for O=C(Cn1ncc2c(=O)oc3ccccc3c21)Nc1nc2ccccc2s1 ?
-8.1e-05

Further, for COc1ccccc1N1CCN(c2nc3ccccc3nc2C(C#N)C(=O)OC(C)C)CC1 (configuration not stated) ?
-0.000323

Also, C=C(C)Cn1c(CCNC(=O)CC)nc2ccccc21 please.
-6.1e-05

Now consider CCOC(=O)c1c(C)oc2ccc(OCC(=O)N(CC)CC)cc12 .
-1.9e-05

Repeat for the following compound: CCOC(=O)c1sc(NC(=O)COC(=O)Cn2cnc3ccccc32)c(C(=O)OCC)c1C
-3e-05

Item: CN(C)CCCN1C(=O)c2oc3ccc(Cl)cc3c(=O)c2C1c1cccnc1 (configuration not stated)
-5.3e-05

Try this compound too: CCOC(=O)C1=C(N)OC2=C(C(=O)CC(C)(C)C2)C1c1ccoc1 (configuration not stated)
-4e-05

Follow-up entry: N#CCSc1nc(-c2ccccc2)cs1
-1.8e-05

Query Cc1nnc(Nc2ccccn2)c2ccccc12 next
-4.2e-05

Again, but for O=C1c2ccccc2-c2ccc(C(=O)N3CCOCC3)cc21
-1.8e-05

Follow-up entry: O=C(CCSc1ccccc1)Nc1ccc(S(=O)(=O)N2CCOCC2)cc1
-5.2e-06

Could you do the same for CC(C)Sc1nc2c(c(=O)n1-c1ccc(F)cc1)SCC2 , please?
-8.5e-05
